test system: SNB-19 CNS; test: NCI tumour cell line growth inhibition, 48 h
Item-by-item account of GI50

>  <Item smiles>
CCCNC(=S)N/N=C(\C)c1ccccn1

>  <GI50>
1.81 µM

$$$$
>  <Item smiles>
COc1ccc(-c2cc3c(nn2)-c2ccccc2C3=O)cc1

>  <GI50>
> 100 µM

$$$$
>  <Item smiles>
Cc1cc(C)cc(Nc2cc(C)nc3nc(C(F)(F)F)nn23)c1

>  <GI50>
> 100 µM

$$$$
>  <Item smiles>
C=C1C(=O)O[C@H]2[C@H]1CC/C(COC(=O)/C=C\C(=O)NCc1ccc(Cn3c(=O)sn(-c4ccc(C#N)cc4)c3=O)cc1)=C\CC[C@@]1(C)O[C@@H]21

>  <GI50>
0.969 µM

$$$$
>  <Item smiles>
COc1ccc(/C(=N/Nc2ccc([N+](=O)[O-])cc2)Sc2cc(Cl)c(C)cc2S(N)(=O)=O)cc1

>  <GI50>
7.06 µM

$$$$
>  <Item smiles>
Cn1cc(-c2csc(-c3cccc(F)c3)n2)c2cccnc21

>  <GI50>
20.1 µM

$$$$

----------
tested on: SK-MEL-2 melanoma; test: NCI tumour cell line growth inhibition, 48 h
Recorded TGI for the following compounds

>  <Compound>
COc1cc(Cc2cc(OC)c(OC)c(OC)c2)ccc1O

>  <Assay system>
SK-MEL-2 melanoma

>  <TGI>
64.5 µM

$$$$
>  <Compound>
CCOC(=O)Cn1sc2ncc([N+](=O)[O-])cc2c1=O

>  <Assay system>
SK-MEL-2 melanoma

>  <TGI>
70.9 µM

$$$$
>  <Compound>
COC(=O)C(=O)C(C(=O)C=C(C)C)C(=O)C(=O)Nc1ccc(Cl)cc1C (centres undefined)

>  <Assay system>
SK-MEL-2 melanoma

>  <TGI>
> 100 µM

$$$$
>  <Compound>
CC(C)CSc1nc(Nc2ccccc2)c(C#N)c(-c2ccc(F)cc2)n1

>  <Assay system>
SK-MEL-2 melanoma

>  <TGI>
30.2 µM

$$$$
>  <Compound>
O=C(CNc1ccc(Cl)cc1)Nn1c(-c2ccccc2)nc2ccccc2c1=O

>  <Assay system>
SK-MEL-2 melanoma

>  <TGI>
30.4 µM

$$$$
>  <Compound>
Cc1ccc2nc3ccccc3c(C3C4C(=O)N(c5ccc(Br)cc5Cl)C(=O)C4ON3C(C(N)=O)c3ccccc3)c2c1 (centres undefined)

>  <Assay system>
SK-MEL-2 melanoma

>  <TGI>
> 25 µM

$$$$
>  <Compound>
COc1cccc(C2c3cc4c(cc3OC(N3CCCC3)C2C)OCO4)c1 (centres undefined)

>  <Assay system>
SK-MEL-2 melanoma

>  <TGI>
23.6 µM

$$$$
>  <Compound>
CC[N+](C)(CC)Cc1ccccc1[N+](=O)[O-]

>  <Assay system>
SK-MEL-2 melanoma

>  <TGI>
> 100 µM

$$$$
>  <Compound>
COc1cc(C2c3cc4c(cc3[C@H](OCCN(C)C)[C@@H]3COC(=O)C23)OCO4)cc(OC)c1O (some centres undefined)

>  <Assay system>
SK-MEL-2 melanoma

>  <TGI>
2.44 µM

$$$$
>  <Compound>
CSc1nc(Cl)c2c(n1)Sc1nc3cc4c(cc3n1C2O)OCO4 (centres undefined)

>  <Assay system>
SK-MEL-2 melanoma

>  <TGI>
> 64.4 µM

$$$$
>  <Compound>
O=c1c2ccccc2nnn1-c1n[nH]c2ccccc12

>  <Assay system>
SK-MEL-2 melanoma

>  <TGI>
> 100 µM

$$$$
>  <Compound>
S=C(/N=c1/sc(Nc2ccccc2)nc2sc3c(c12)CCCC3)Nc1ccccc1

>  <Assay system>
SK-MEL-2 melanoma

>  <TGI>
> 62.5 µM

$$$$
>  <Compound>
O=C1SCC(O)=C1/C=N/Nc1nc2ccccc2o1

>  <Assay system>
SK-MEL-2 melanoma

>  <TGI>
> 100 µM

$$$$
>  <Compound>
CCCCC/C=C/C/C=C/CCCCCCCC1=NC(C)(C)CN1C(C)C

>  <Assay system>
SK-MEL-2 melanoma

>  <TGI>
3.35 µM

$$$$
>  <Compound>
COC(=O)CSc1n[nH]c(-c2ccc(O)c([N+](=O)[O-])c2)n1

>  <Assay system>
SK-MEL-2 melanoma

>  <TGI>
> 100 µM

$$$$
>  <Compound>
C[C@]12CC[C@@H]3c4ccc(O)cc4CC[C@H]3[C@@H]1CC[C@@H]2NS(=O)(=O)c1ccc(C(F)(F)F)cc1

>  <Assay system>
SK-MEL-2 melanoma

>  <TGI>
4 µM

$$$$
>  <Compound>
COc1ccc2cc(C(=O)/C=C/c3cccc(OC)c3OC)ccc2c1

>  <Assay system>
SK-MEL-2 melanoma

>  <TGI>
40.3 µM

$$$$
>  <Compound>
O=C(Nc1ccc2nc(-c3ccccc3)cn2c1)Oc1ccccc1

>  <Assay system>
SK-MEL-2 melanoma

>  <TGI>
> 100 µM

$$$$
>  <Compound>
CCC1(O)C(=O)OCc2c1cc1n(c2=O)Cc2cc3c(N)cccc3nc2-1 (centres undefined)

>  <Assay system>
SK-MEL-2 melanoma

>  <TGI>
3.43 µM

$$$$
>  <Compound>
C/C(=N\NC(=S)N1CC2CCC(CC2)C1)c1ccncn1

>  <Assay system>
SK-MEL-2 melanoma

>  <TGI>
5.39 µM

$$$$
>  <Compound>
CC[C@H](C)[C@H](NC(=O)[C@H]1CCCCN1C)C(=O)N(C)[C@H](CCc1nc(C(=O)N[C@@H](Cc2ccccc2)C[C@H](C)C(=O)OC)cs1)C(C)C

>  <Assay system>
SK-MEL-2 melanoma

>  <TGI>
15.9 µM

$$$$
>  <Compound>
COc1cc2c(/C=C3/C(=O)Nc4cccc(Cl)c43)c(Cl)n(Cc3ccccc3)c2cc1C

>  <Assay system>
SK-MEL-2 melanoma

>  <TGI>
68.2 µM

$$$$
>  <Compound>
N#CCCN(CCC#N)c1ccc(/C=C2\N=C(CN3C(=O)c4ccccc4C3=O)OC2=O)cc1

>  <Assay system>
SK-MEL-2 melanoma

>  <TGI>
> 100 µM

$$$$
>  <Compound>
COc1ccc(OC(=O)O[C@H]2[C@H](O[C@H]3[C@@H](O)COC(O[C@H]4C[C@H]5[C@@H]6CC=C7C[C@@H](O)CC[C@]7(C)[C@H]6CC[C@]5(C)[C@H]4[C@H](C)C(=O)CCC(C)C)[C@@H]3OC(C)=O)OC[C@@H](O)[C@@H]2O)cc1 (some centres undefined)

>  <Assay system>
SK-MEL-2 melanoma

>  <TGI>
0.645 µM

$$$$
>  <Compound>
CC1CN=C(Nc2ccc(S(N)(=O)=O)cc2)S1 (centres undefined)

>  <Assay system>
SK-MEL-2 melanoma

>  <TGI>
> 100 µM

$$$$
>  <Compound>
CC12CCCC(CC(=O)c3[nH]c4ccccc4c31)C2 (centres undefined)

>  <Assay system>
SK-MEL-2 melanoma

>  <TGI>
> 59.1 µM

$$$$
>  <Compound>
Cc1nnc([C@@]2(C)CC[C@H]3[C@@H](CC=C4C[C@@H](O)CC[C@@]43C)[C@@H]2CC#N)o1

>  <Assay system>
SK-MEL-2 melanoma

>  <TGI>
> 100 µM

$$$$
>  <Compound>
COC(=O)c1cc2c(c(C(=O)OC)c1O)C(=O)C=CC2=O

>  <Assay system>
SK-MEL-2 melanoma

>  <TGI>
> 100 µM

$$$$
>  <Compound>
Nc1nc(Cl)cc(NCC2(CO)CC(OCc3ccccc3)C2)n1 (centres undefined)

>  <Assay system>
SK-MEL-2 melanoma

>  <TGI>
> 100 µM

$$$$
>  <Compound>
O=C(NCCCNC(=O)c1ccc2cc(O)c(O)cc2c1)c1ccc2cc(O)c(O)cc2c1

>  <Assay system>
SK-MEL-2 melanoma

>  <TGI>
34 µM

$$$$
>  <Compound>
CN(C)C(=S)/N=c1\ss/c(=N\C(=S)N(C)C)n1-c1ccc2c(c1)OCO2

>  <Assay system>
SK-MEL-2 melanoma

>  <TGI>
> 100 µM

$$$$
>  <Compound>
CCN(CC)C(=O)C/C(C)=N/NC(=O)c1ccncc1

>  <Assay system>
SK-MEL-2 melanoma

>  <TGI>
> 100 µM

$$$$
>  <Compound>
O=C(c1ccccc1)c1c2ccccn2c2cccc[n+]12

>  <Assay system>
SK-MEL-2 melanoma

>  <TGI>
> 100 µM

$$$$
>  <Compound>
O=C(NC1CCCCCC1)C1C(=O)N(C2CCCCCC2)C(=O)/C1=N\O (centres undefined)

>  <Assay system>
SK-MEL-2 melanoma

>  <TGI>
40.3 µM

$$$$

Measured values drawn from PubChem BioAssay (NCI) for this set.
